// provenance: patent US20040102622A1

Tested on: human hepatocyte growth factor receptor mRNA
Experiment: Inhibition of human hepatocyte growth factor receptor mRNA levels in T-24 cells, quantitative real-time PCR; also: test concentration or dose not given here
Details: averages from three experiments
Strand notation (5' to 3'): a small letter for the sugar, then the base; units joined by * are phosphorothioate-linked, units joined directly phosphodiester-linked; [ ] holds rarer units or linkages, { } end groups; capitals alone tell only the bases. e = 2'-O-(2-methoxyethyl) (MOE); [5mC] = 5-methylcytosine; d = 2'-deoxy (DNA)
Parameter: % INHIB (inhibition of human hepatocyte growth factor receptor mRNA levels) (%)
Dear colleague, please return just the value in %, with no unit written.

Q: Which measured % INHIB (inhibition of human hepatocyte growth factor receptor mRNA levels) value corresponds to 209549 (antisense e[5mC]*e[5mC]*eT*eG*eA*dG*d[5mC]*dA*dT*dT*dA*d[5mC]*dT*dA*dT*e[5mC]*eT*e[5mC]*eT*eT) [compound 209549] ?
A: 84

Q: Which measured % INHIB (inhibition of human hepatocyte growth factor receptor mRNA levels) value corresponds to 209544 (antisense eT*eA*eA*eT*eA*dG*dT*dG*d[5mC]*dA*dA*dT*dT*dT*dT*eG*eG*e[5mC]*eA*eA) [compound 209544] ?
A: 82

Q: Which measured % INHIB (inhibition of human hepatocyte growth factor receptor mRNA levels) value corresponds to 155118 (antisense e[5mC]*eA*eT*e[5mC]*e[5mC]*dA*dG*d[5mC]*dA*dT*dA*d[5mC]*dA*dG*dT*eT*eT*e[5mC]*eT*eT) [compound 155118] ?
A: 55

Q: Which measured % INHIB (inhibition of human hepatocyte growth factor receptor mRNA levels) value corresponds to 209550 (antisense eT*eG*e[5mC]*eG*e[5mC]*dG*d[5mC]*dT*dG*dT*dA*dG*dT*d[5mC]*d[5mC]*e[5mC]*eA*eG*e[5mC]*eT) [compound 209550] ?
A: 84

Q: Which measured % INHIB (inhibition of human hepatocyte growth factor receptor mRNA levels) value corresponds to 155104 (antisense eA*eT*eG*e[5mC]*eA*dA*dT*dG*dG*dA*dT*dG*dA*dT*d[5mC]*eT*eG*eG*eG*eA) [compound 155104] ?
A: 84

Q: Which measured % INHIB (inhibition of human hepatocyte growth factor receptor mRNA levels) value corresponds to 209536 (antisense e[5mC]*e[5mC]*eT*e[5mC]*e[5mC]*d[5mC]*dA*dT*dA*d[5mC]*dT*dA*dG*dA*dG*eA*eA*eG*eT*eA) [compound 209536] ?
A: 36
